System: JAK1-dependent STAT6 phosphorylation downstream of IL-13 stimulation in BEAS-2B human bronchial epithelial cells
Assay: JAK1 pathway assay in BEAS-2B cells (IL-13-pSTAT6, MSD)
Format: cell-based
Settings: read-out: IL13-pSTAT6 EC50 (uM)_BEAS-2B
Some molecules, each annotated with its measured EC50.
A number alone suffices; assume µM.

Solved cases (3 shown):
* CN1CC[C@H]2[C@@H](CCN2C(=O)Cn2cc(NC(=O)c3cnn4cccnc34)c(-c3cc(Cl)ccc3OC(F)F)n2)C1 | 0.0892
* CN1CCN(C(=O)Cn2cc(NC(=O)c3cnn4cccnc34)c(-c3cc(Cl)ccc3OC(F)F)n2)C(C)(C)C1 | 0.0528
* O=C(Nc1cn(CC(=O)N2CCC(N3CC[S+]([O-])CC3)CC2)nc1-c1cc(Cl)ccc1OC(F)F)c1cnn2cccnc12 | 0.0663

Note to self: EC50 recorded for CN1CCN(C(=O)Cn2cc(NC(=O)c3cnn4cccnc34)c(-c3cc(Cl)ccc3OC(F)F)n2)CC1(C)C was 0.0874

----------
System: JAK1-dependent STAT6 phosphorylation downstream of IL-13 stimulation in TF-1 human erythroleukemia cells
Assay: JAK1 pathway assay in TF-1 cells (IL-13-pSTAT6, MSD)
Assay type: cell-based
Details: Homo sapiens, TF-1, TF-1 cells, read-out: IL13-pSTAT6 EC50_TF-1
Assay Metric: log10 of EC50 (log10 of the value in µM)
A value of 2 here means EC50 of 100 in µM, since values are log10.

The reported log10 of EC50 of the compound CCOC(=O)N1CCC(CN2C[C@@H]3CN(C(=O)Cn4cc(NC(=O)c5cnn6cccnc56)c(-c5cc(Cl)ccc5OC(F)F)n4)C[C@@H]3C2)CC1 was -2.07

response.value for CN(CCc1ccc(Cl)cc1)C1CCN(C(=O)Cn2cc(NC(=O)c3cnn4cccnc34)c(-c3cc(Cl)ccc3OC(F)F)n2)CC1 (field: log10 of EC50) = -1.37

Form: compound = O=C(Nc1cn(C2CCN(CCCN3CCCC3=O)CC2)nc1-c1cc(Cl)ccc1OC(F)F)c1cnn2cccnc12 ; log10 of EC50 = -2.29

Record CN(CC1(C#N)CCCCC1)C1CCN(C(=O)C2CCN(c3nc(-c4cc(Cl)ccc4OC(F)F)c(NC(=O)c4cnn5cccnc45)s3)CC2)CC1 , field log10 of EC50: -2.10

// recorded log10 of EC50 for Nc1nn2cccnc2c1C(=O)Nc1cn(C2CCN(CCCCc3ccccc3)CC2)nc1-c1cc(Cl)ccc1OC(F)F : -0.89

The reported log10 of EC50 of the compound CN(C)C1CCN(C(=O)c2nc(-c3cc(Cl)ccc3OC(F)F)c(NC(=O)c3cnn4cccnc34)s2)CC1 was -1.64

----------
Target: isolated recombinant JAK2 kinase domain (Homo sapiens (Human), UniProt O60674)
Sequence (O60674 849-1124): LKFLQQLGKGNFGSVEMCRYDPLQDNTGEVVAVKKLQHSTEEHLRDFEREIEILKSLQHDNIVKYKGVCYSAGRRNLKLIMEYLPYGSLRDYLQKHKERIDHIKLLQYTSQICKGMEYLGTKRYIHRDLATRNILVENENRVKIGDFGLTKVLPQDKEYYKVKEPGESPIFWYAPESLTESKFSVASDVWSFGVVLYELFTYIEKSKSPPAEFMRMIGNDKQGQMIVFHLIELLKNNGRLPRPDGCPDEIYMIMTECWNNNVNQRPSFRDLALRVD
Test: JAK2 enzyme assay (Caliper LabChip, peptide phosphorylation)
Conditions: 25 μM ATP
Measured pKi accompanies every entry in the list below.
Scale explanation: pKi corresponds to minus log10 of a concentration expressed in moles per litre.

• O=C(Nc1cn(CC(=O)N2C[C@@H]3CCN[C@@H]3C2)nc1-c1cc(Cl)ccc1OC(F)F)c1cnn2cccnc12 = 9.05
• O=C(Nc1sc(N2CCN(CC(F)(F)F)CC2)nc1-c1cc(Cl)ccc1OC(F)F)c1cnn2cccnc12 = 8.97
• CN1CCC2(CCN(C(=O)Cn3cc(NC(=O)c4cnn5cccnc45)c(-c4cc(Cl)ccc4OC(F)F)n3)C2)C1 (stereo not shown) = 8.71

# evaluate next
O=C(Nc1cn(CC(=O)N2CCC(N(CCC(F)(F)F)Cc3ccccc3)CC2)nc1-c1cc(Cl)ccc1OC(F)F)c1cnn2cccnc12 on isolated recombinant JAK2 kinase domain (Homo sapiens (Human), UniProt O60674) gives pKi = 8.35

----------
Biological target: isolated recombinant JAK2 kinase domain (Homo sapiens (Human))
Assay: JAK2 enzyme assay (Caliper LabChip, peptide phosphorylation)
Conditions: 25 μM ATP
Below, each entry is listed alongside its reported Ki.
Your answer is read as pM, so omit the unit and give the number.

Use these answered entries as a reference point.
* CN(CC(C)(C)C#N)C1CCN(C(=O)Cn2cc(NC(=O)c3cnn4cccnc34)c(-c3cc(Cl)ccc3OC(F)F)n2)CC1 | 560
* CN(C)CCC1CCN(c2nc(-c3cc(Cl)ccc3OC(F)F)c(NC(=O)c3cnn4cccnc34)s2)CC1 | 2920
* O=C(Nc1cn(CCNCc2ccccc2)nc1-c1cc(Cl)ccc1OC(F)F)c1cnn2cccnc12 | 210
* Nc1nn2cccnc2c1C(=O)Nc1cn(C2CCN(CCOCc3ccccc3)CC2)nc1-c1cc(Cl)ccc1OC(F)F | 350
* Nc1nn2cccnc2c1C(=O)Nc1cn(C2CCN(CCCCc3ccccc3)CC2)nc1-c1cc(Cl)ccc1OC(F)F | 900
* O=C(Nc1cn(CC(=O)N2CCOCC2)nc1-c1cc(Cl)ccc1OC(F)F)c1cnn2cccnc12 | 1110
* CN(CC(F)(F)F)C1CCN(C(=O)Cn2cc(NC(=O)c3cnn4cccnc34)c(-c3cc(Cl)ccc3OC(F)F)n2)CC1 | 760
* O=C(Nc1cn(CC(=O)N2C[C@H]3CN(CCOCc4ccc(Cl)cc4)C[C@H]3C2)nc1-c1cc(Cl)ccc1OC(F)F)c1cnn2cccnc12 | 700
* CN(C)CCOC1CCN(C(=O)Cn2cc(NC(=O)c3c(N)nn4cccnc34)c(-c3cc(Cl)ccc3OC(F)F)n2)CC1 | 720
* CN1CCCN(C(=O)Cn2cc(NC(=O)c3c(N)nn4cccnc34)c(-c3cc(Cl)ccc3OC(F)F)n2)CC1 | 570

# Ki of Nc1nn2cccnc2c1C(=O)Nc1cn(CC(=O)N2CCNCC2)nc1-c1cc(Cl)ccc1OC(F)F = 440

For record CN1CCN(C(=O)Cn2cc(NC(=O)c3cnn4cccnc34)c(-c3cc(Cl)ccc3OC(F)F)n2)CC1 the listed Ki is 930

For record O=C(Nc1cn(CC(=O)N2CCN(C3CCOCC3)CC2)nc1-c1cc(Cl)ccc1OC(F)F)c1cnn2cccnc12 the listed Ki is 990

response.value for CN(Cc1ccc(F)c(Br)c1)C1CCN(C(=O)Cn2cc(NC(=O)c3cnn4cccnc34)c(-c3cc(Cl)ccc3OC(F)F)n2)CC1 (field: Ki) = 2680

# Ki (molecule: Nc1nn2cccnc2c1C(=O)Nc1cn([C@@H]2CCNC2)nc1-c1cc(Cl)ccc1OC(F)F ) is 310

GET /value?item= Nc1nn2cccnc2c1C(=O)Nc1cn(CC(=O)N2CCC(F)(F)C2)nc1-c1cc(Cl)ccc1OC(F)F &field=Ki returns 120

get_value(item= CN1C[C@@H]2CN(C(=O)Cn3cc(NC(=O)c4cnn5cccnc45)c(-c4cc(Cl)ccc4OC(F)F)n3)C[C@]2(c2ccccc2)C1 [Example 16] , readout=Ki) returns 560

In plain terms, CC1(CN2CCN(C(=O)Cn3cc(NC(=O)c4cnn5cccnc45)c(-c4cc(Cl)ccc4OC(F)F)n3)CC2)COC1 has a documented Ki of 1110

----------
Target: isolated recombinant JAK2 kinase domain (Homo sapiens (Human), UniProt O60674)
Assay: JAK2 enzyme assay (Caliper LabChip, peptide phosphorylation)
Conditions: 25 μM ATP
pKi reference
Keep it numeric: pKi is minus log10 of the concentration in mol/L.

The examples below pair each entry with its known result.
- CN(CCOc1ccccc1Cl)C1CCN(C(=O)Cn2cc(NC(=O)c3cnn4cccnc34)c(-c3cc(Cl)ccc3OC(F)F)n2)CC1: 8.64
- CN(CCOc1ccccc1)C1CCN(C(=O)Cn2cc(NC(=O)c3cnn4cccnc34)c(-c3cc(Cl)ccc3OC(F)F)n2)CC1: 8.70

Please find the next compound below.
Lab note: CN(CCC#N)C1CCC(=CCn2cc(NC(=O)c3cnn4cccnc34)c(-c3cc(Cl)ccc3OC(F)F)n2)CC1 (stereo not drawn) gave pKi of 9.09

----------
Molecular target: isolated recombinant JAK2 kinase domain (Homo sapiens (Human), UniProt O60674)
Assay: JAK2 enzyme assay (Caliper LabChip, peptide phosphorylation)
Settings: 25 μM ATP
Assay Metric: pKi
For clarity, pKi is expressed as the negative log10 of concentration in mol/L.

* CCCCN(CC(F)(F)F)C1CCN(C(=O)Cn2cc(NC(=O)c3cnn4cccnc34)c(-c3cc(Cl)ccc3OC(F)F)n2)CC1 [Example 115] | 8.61
* CN1CCC2CN(C(=O)Cn3cc(NC(=O)c4cnn5cccnc45)c(-c4cc(Cl)ccc4OC(F)F)n3)CC21 (stereo not drawn) [Example 430] | 9.11
* CC1(C(=O)OCCN2CCOCC2)CCN(C(=O)Cn2cc(NC(=O)c3cnn4cccnc34)c(-c3cc(Cl)ccc3OC(F)F)n2)CC1 [Example 339] | 9.00
* O=C(Nc1cn(CCNCc2ccccn2)nc1-c1cc(Cl)ccc1OC(F)F)c1cnn2cccnc12 [Example 314] | 9.41
* CC(C)(C)OC(=O)N1CC[C@@H](n2cc(NC(=O)c3cnn4cccnc34)c(-c3cc(Cl)ccc3OC(F)F)n2)[C@H](O)C1 (single isomer, unassigned) [Example 354] | 8.98

Reported pKi of CN1CC[C@H](n2cc(NC(=O)c3c(N)nn4cccnc34)c(-c3cc(Cl)ccc3OC(F)F)n2)C1 [Example 182] : 9.70
